Test system: Mannheimia haemolytica
Experiment Summary: minimum inhibitory concentration (MIC)
Test Settings: isolate (source animal id): 159
Measurement Kind: minimum inhibitory concentration (µg/mL)
Numeric answer only, unit µg/mL assumed.

## Input Tell me measured minimum inhibitory concentration for CN[C@@H]1[C@H](O)[C@H](NC)[C@H]2O[C@@]3(O)C(=O)C[C@@H](C)O[C@H]3O[C@@H]2[C@H]1O please.
## Output 16

###

Test system: Histophilus somni
Experiment Summary: minimum inhibitory concentration (MIC)
Test Settings: isolate (source animal id): 146
Assignment: determine reported minimum inhibitory concentration for the given molecules.
Numeric answer only, unit µg/mL assumed.

## Input Tell me measured minimum inhibitory concentration for CS(=O)(=O)c1ccc([C@@H](O)[C@@H](CF)NC(=O)C(Cl)Cl)cc1 please.
## Output 0.5

## Input Tell me measured minimum inhibitory concentration for CCCNC[C@]1(O)[C@H](C)O[C@@H](O[C@H]2[C@H](C)[C@@H](O[C@@H]3O[C@H](C)C[C@H](N(C)C)[C@H]3O)[C@](C)(O)C[C@@H](C)CN[C@H](C)[C@@H](O)[C@](C)(O)[C@@H](CC)OC(=O)[C@@H]2C)C[C@@]1(C)OC please.
## Output 16

## Input Tell me measured minimum inhibitory concentration for CN[C@@H]1[C@H](O)[C@H](NC)[C@H]2O[C@@]3(O)C(=O)C[C@@H](C)O[C@H]3O[C@@H]2[C@H]1O please.
## Output 64

## Input Tell me measured minimum inhibitory concentration for CC[C@H]1OC(=O)C[C@@H](O)[C@H](C)[C@@H](O[C@@H]2O[C@H](C)[C@@H](O)[C@H](N(C)C)[C@H]2O)[C@@H](CCN2CCCCC2)C[C@@H](C)C(=O)/C=C/C(C)=C/[C@@H]1CN1CCCCC1 please.
## Output 4
